molecular target: EPHB2 (UniProt P29323); assay: phosphorylation enrichment, bacterial display (enrichment ratio); higher = better substrate or ligand; peptides without Tyr show the background
Sequence (P29323 whole entry, looked up): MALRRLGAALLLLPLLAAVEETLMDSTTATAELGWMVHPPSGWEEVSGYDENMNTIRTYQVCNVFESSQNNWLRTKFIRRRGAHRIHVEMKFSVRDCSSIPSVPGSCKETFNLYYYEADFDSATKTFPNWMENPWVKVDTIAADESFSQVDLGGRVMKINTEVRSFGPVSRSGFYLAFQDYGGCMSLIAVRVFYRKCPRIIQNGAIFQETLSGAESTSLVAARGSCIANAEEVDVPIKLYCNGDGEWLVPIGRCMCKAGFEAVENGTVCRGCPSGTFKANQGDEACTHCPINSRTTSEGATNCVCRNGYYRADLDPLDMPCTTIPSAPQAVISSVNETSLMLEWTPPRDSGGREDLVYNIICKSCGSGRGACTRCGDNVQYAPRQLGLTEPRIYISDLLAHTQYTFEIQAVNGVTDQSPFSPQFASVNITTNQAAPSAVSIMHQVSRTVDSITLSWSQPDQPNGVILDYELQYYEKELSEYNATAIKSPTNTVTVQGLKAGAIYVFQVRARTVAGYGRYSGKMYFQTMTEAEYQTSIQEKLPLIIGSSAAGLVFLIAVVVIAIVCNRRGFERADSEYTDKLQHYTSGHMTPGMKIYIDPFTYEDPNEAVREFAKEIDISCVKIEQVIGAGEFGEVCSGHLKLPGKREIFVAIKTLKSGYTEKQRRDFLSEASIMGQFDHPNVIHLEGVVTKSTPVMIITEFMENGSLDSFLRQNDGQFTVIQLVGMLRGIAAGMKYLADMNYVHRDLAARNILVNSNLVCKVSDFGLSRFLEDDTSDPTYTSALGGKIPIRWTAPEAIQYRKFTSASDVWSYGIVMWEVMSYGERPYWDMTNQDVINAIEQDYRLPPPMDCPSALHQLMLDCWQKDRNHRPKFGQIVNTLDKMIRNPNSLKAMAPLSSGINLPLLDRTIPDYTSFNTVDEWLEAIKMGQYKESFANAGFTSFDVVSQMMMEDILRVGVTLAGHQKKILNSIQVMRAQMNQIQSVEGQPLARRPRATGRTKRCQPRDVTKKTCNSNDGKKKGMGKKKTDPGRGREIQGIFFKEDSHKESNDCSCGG
Quick reference for phosphorylation enrichment among some sequences
# respond with the number and nothing more

monomer-sequence	system-name	readout-label	reading
LGRTRYQDVTG [MIPEP_Y510_H512D]	EPHB2 (UniProt P29323)	phosphorylation enrichment	0.548
ELTAKYLNFFR [P3H4_Y181_Q186R_YF]	EPHB2 (UniProt P29323)	phosphorylation enrichment	0.425
GESQGYDIMEA [MSH2_Y863_P868A]	EPHB2 (UniProt P29323)	phosphorylation enrichment	0.484

Per the records, this sequence ( MIRSAYALGGL [CPS1_Y590] ) has phosphorylation enrichment equal to 0.435

Per the records, this sequence ( DCAAIYGNEPE [AKR1A1_Y50] ) has phosphorylation enrichment equal to 0.694

* * *

biological target: EPHB1 (UniProt P54762); experiment: phosphorylation enrichment, bacterial display (enrichment ratio); higher = better substrate or ligand; peptides without Tyr show the background
Sequence (P54762 whole entry, looked up): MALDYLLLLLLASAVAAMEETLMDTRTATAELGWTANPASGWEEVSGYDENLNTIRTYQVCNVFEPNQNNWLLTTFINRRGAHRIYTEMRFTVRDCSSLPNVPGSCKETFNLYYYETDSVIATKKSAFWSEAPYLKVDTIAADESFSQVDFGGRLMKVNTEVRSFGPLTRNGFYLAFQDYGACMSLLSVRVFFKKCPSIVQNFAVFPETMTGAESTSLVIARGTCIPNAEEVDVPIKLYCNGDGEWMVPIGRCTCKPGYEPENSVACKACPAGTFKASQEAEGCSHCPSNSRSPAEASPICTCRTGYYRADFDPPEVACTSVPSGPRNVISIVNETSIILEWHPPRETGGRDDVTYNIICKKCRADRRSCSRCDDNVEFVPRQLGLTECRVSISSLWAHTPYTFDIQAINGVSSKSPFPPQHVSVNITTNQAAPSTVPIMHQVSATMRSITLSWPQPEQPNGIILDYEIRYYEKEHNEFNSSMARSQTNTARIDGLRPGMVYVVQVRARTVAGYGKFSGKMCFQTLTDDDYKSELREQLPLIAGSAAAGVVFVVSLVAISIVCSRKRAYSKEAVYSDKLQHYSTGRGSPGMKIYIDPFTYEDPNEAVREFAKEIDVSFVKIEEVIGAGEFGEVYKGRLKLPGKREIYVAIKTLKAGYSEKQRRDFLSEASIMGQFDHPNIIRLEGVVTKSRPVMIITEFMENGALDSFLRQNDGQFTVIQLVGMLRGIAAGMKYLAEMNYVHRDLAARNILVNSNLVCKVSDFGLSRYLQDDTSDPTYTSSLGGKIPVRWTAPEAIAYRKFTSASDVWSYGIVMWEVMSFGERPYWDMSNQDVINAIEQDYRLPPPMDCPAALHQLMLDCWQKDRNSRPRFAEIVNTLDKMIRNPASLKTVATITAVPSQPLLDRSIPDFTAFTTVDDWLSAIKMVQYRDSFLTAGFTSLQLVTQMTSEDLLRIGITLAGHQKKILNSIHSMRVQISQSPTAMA
readout-label: phosphorylation enrichment
# respond with the number and nothing more

monomer-sequence	phosphorylation enrichment
RETSLYKACER [ASB2_Y162_P160S]	0.59
ERTIEYLEEVA [HADHA_Y239]	0.593
AELVPYFMEHH [PTPN11_Y80_Q79P_YF]	0.605

Per the records, this sequence ( KWRGQYDVAIR [BTK_Y425_K430R] ) has phosphorylation enrichment equal to 0.498

Per the records, this sequence ( ADIETYLLEKS [MYH7_Y266] ) has phosphorylation enrichment equal to 0.466

Per the records, this sequence ( CTTLHYNFMCN [TP53_Y234_I232L_YF] ) has phosphorylation enrichment equal to 0.361

Per the records, this sequence ( STFVPCEIKVQ [L1CAM_Y784_Y784C] ) has phosphorylation enrichment equal to 0.685

Per the records, this sequence ( MIRSAYALGGL [CPS1_Y590] ) has phosphorylation enrichment equal to 0.358

Per the records, this sequence ( KQELVYPNKKL [OPTN_Y356_T357P] ) has phosphorylation enrichment equal to 0.33

Per the records, this sequence ( HNELYYEEAEH [VANGL1_Y345] ) has phosphorylation enrichment equal to 1.21

Per the records, this sequence ( KDPPDYKYQPR [SOX9_Y172_H169P] ) has phosphorylation enrichment equal to 0.489

Per the records, this sequence ( FRDALYKFIVD [PHEX_Y250_M253I_YF] ) has phosphorylation enrichment equal to 0.644

Per the records, this sequence ( MDNQEYKDAFT [BRDT_Y331_K336T_YF] ) has phosphorylation enrichment equal to 0.56

Per the records, this sequence ( KGSEGYLAATY [NF1_Y2503] ) has phosphorylation enrichment equal to 0.372

Per the records, this sequence ( STILLYHIMAW [GPR143_Y157] ) has phosphorylation enrichment equal to 4.83

Per the records, this sequence ( QLHEHYKIHKE [NSMAF_Y626] ) has phosphorylation enrichment equal to 0.455

Per the records, this sequence ( YDGGCYEQLFV [MC4R_Y41_S36Y] ) has phosphorylation enrichment equal to 1.24

* * *

target: FGFR1 (UniProt P11362); test: phosphorylation enrichment, bacterial display (enrichment ratio); higher = better substrate or ligand; peptides without Tyr show the background
Sequence (P11362 whole entry, looked up): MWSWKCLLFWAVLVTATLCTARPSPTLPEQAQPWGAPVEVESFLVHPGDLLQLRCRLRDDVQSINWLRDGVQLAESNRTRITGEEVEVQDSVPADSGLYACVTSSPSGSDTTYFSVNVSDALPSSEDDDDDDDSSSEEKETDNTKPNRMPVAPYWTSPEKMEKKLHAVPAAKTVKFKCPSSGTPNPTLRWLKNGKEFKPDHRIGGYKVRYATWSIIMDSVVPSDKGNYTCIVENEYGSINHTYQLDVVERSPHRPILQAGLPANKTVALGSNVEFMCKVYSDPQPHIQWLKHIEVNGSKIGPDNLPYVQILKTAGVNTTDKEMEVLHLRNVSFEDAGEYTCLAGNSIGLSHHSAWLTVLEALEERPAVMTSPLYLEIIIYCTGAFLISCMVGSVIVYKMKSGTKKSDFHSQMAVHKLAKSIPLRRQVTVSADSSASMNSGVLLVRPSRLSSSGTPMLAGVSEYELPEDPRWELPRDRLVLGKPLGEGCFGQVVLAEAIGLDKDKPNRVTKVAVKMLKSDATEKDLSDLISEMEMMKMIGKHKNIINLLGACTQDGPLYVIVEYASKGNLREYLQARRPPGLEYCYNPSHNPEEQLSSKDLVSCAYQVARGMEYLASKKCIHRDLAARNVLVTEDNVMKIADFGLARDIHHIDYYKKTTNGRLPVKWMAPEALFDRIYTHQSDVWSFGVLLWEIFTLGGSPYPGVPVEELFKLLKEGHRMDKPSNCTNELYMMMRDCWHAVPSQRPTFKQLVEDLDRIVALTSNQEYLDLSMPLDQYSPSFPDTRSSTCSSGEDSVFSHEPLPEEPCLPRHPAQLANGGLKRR
Category scheme (phosphorylation enrichment): lower band = under 0.5, central band = from 0.5 up to 0.7, upper band = 0.7 and over

Record excerpt, results attached:
monomer-sequence	classification
CGTPTCLAPEV [CHEK2_Y390_Y390C]	central band
FSLIHYASIVD [MYH7_Y582_G584S]	lower band
ENQEIYRKAFD [KPNA1_Y493_Q494R]	central band

QUERY: Class? Entry: KDHPDYKFQLR [SOX10_Y171_P175L_YF]
RESULT: lower band

QUERY: Class? Entry: CTTIHYNYICN [TP53_Y234_M237I]
RESULT: central band

QUERY: Class? Entry: SKGYAYVHFDS [PABPC5_Y149]
RESULT: central band

QUERY: Class? Entry: FLNSSYINIST [IL23R_Y178_T175N_YF]
RESULT: lower band

* * *

biological target: Grb2 SH2 (UniProt P62993); experiment: SH2 binding enrichment of the phosphorylated peptide, bacterial display (enrichment ratio); higher = better substrate or ligand; peptides without Tyr show the background
Sequence (P62993 whole entry, looked up): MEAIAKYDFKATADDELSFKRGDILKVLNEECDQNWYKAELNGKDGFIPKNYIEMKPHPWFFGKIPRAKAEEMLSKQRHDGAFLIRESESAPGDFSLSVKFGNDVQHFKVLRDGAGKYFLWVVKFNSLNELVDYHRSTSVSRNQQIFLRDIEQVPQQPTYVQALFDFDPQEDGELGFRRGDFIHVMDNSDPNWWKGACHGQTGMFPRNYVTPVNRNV
readout-label: SH2 binding enrichment
# respond with the number and nothing more

Per the records, this sequence ( PIYLYYLMDLS [ITGB2_Y131_D128Y] ) has SH2 binding enrichment equal to 0.902

Per the records, this sequence ( NFNPNYCFAGK [ALK_Y1096_D1091N_YF] ) has SH2 binding enrichment equal to 0.876

Per the records, this sequence ( PFWKLYESVKK [MKI67_Y241] ) has SH2 binding enrichment equal to 1.16

Per the records, this sequence ( PSPMPYACCQM [FOXL2_Y215_S217C] ) has SH2 binding enrichment equal to 0.888

Per the records, this sequence ( SVSNNYIQTLG [CTNND1_Y174] ) has SH2 binding enrichment equal to 0.846

Per the records, this sequence ( LGGAMYYLEAE [PKHD1_Y452] ) has SH2 binding enrichment equal to 0.811

Per the records, this sequence ( PVGVLYEVKVY [PTS_Y128_K129E] ) has SH2 binding enrichment equal to 0.966

Per the records, this sequence ( FPPISYLNAIS [MVD_Y276] ) has SH2 binding enrichment equal to 0.668

Per the records, this sequence ( PYADPYYDYEI [ZC3H18_Y371] ) has SH2 binding enrichment equal to 0.795

* * *

target: Grb2 SH2 (UniProt P62993); experiment: SH2 binding enrichment of the phosphorylated peptide, bacterial display (enrichment ratio); higher = better substrate or ligand; peptides without Tyr show the background
Quick reference for SH2 binding enrichment among some sequences
# respond with the number and nothing more

monomer-sequence	SH2 binding enrichment
NVVQEYERVII [NPHS2_Y131_K126N]	0.978
FYDANCDGKEY [MAPRE2_Y162_Y162C]	1.03
EEQKKNFNAMK [SCN5A_Y1494_Y1494N_YF]	0.895
CNTIHYNYMCN [TP53_Y234_T230N]	0.937
RYLKDYGEFEV [GINS1_Y156_C152Y]	0.972

Turning to the following sequence.
SH2 binding enrichment of IPTPAYQSLPA [PDCD6IP_Y727_S730L] , assay on Grb2 SH2 (UniProt P62993), is 0.707

* * *

target: MERTK (UniProt Q12866); assay: phosphorylation enrichment, bacterial display (enrichment ratio); higher = better substrate or ligand; peptides without Tyr show the background
Sequence (Q12866 whole entry, looked up): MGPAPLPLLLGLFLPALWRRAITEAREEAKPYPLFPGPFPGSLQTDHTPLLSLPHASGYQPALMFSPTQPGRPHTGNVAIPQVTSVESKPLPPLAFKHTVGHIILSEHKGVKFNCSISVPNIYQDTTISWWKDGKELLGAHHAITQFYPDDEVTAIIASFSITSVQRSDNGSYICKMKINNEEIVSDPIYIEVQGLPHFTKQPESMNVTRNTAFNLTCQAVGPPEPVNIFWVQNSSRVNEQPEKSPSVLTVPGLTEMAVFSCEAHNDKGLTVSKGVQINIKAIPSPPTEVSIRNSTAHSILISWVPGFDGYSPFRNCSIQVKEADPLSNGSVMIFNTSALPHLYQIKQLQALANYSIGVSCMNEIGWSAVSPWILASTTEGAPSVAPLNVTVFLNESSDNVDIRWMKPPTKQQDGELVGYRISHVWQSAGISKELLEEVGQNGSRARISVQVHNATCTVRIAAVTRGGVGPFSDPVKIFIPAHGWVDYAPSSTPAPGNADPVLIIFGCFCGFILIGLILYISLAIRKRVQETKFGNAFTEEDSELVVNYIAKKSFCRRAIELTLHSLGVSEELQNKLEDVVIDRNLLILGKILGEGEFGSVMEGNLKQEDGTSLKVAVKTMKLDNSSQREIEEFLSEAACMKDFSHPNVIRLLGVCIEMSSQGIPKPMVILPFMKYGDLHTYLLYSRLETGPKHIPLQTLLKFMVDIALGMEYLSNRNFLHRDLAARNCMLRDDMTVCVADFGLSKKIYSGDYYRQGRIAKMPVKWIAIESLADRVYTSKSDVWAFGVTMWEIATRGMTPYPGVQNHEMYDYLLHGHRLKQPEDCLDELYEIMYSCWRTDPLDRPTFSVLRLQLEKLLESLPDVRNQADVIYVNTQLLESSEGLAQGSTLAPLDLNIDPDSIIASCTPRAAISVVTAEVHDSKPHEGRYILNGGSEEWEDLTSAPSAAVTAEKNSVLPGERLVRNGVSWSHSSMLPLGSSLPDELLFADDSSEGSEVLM
Quick reference for phosphorylation enrichment among some sequences
# respond with the number and nothing more

Some solved entries appear below for comparison.
monomer-sequence	reading
MFRVQYNSSVD [LRFN1_Y458_Q455R_YF]	0.349
KDPPDYKYQPR [SOX9_Y172_H169P]	0.375

Turning to the following sequence.
Per the records, this sequence ( AKKKMYSLKTK [AGXT_Y231_R233L] ) has phosphorylation enrichment equal to 0.435

* * *

system: c-Abl (mouse); assay: phosphorylation enrichment, bacterial display (enrichment ratio); higher = better substrate or ligand; peptides without Tyr show the background
readout-label: phosphorylation enrichment
# respond with the number and nothing more

monomer-sequence	phosphorylation enrichment
TMKSRYMELFD [BBS2_Y644_YF]	0.613
LNERHYGGLTG [PGAM2_Y92]	0.789
PSTYRYERGSR [INPPL1_Y663_P659S]	0.446

Turning to the following sequence.
Per the records, this sequence ( NMSRIYSTAKV [ACE_Y151] ) has phosphorylation enrichment equal to 0.545

* * *

biological target: FGFR3 (UniProt P22607); assay: phosphorylation enrichment, bacterial display (enrichment ratio); higher = better substrate or ligand; peptides without Tyr show the background
Sequence (P22607 whole entry, looked up): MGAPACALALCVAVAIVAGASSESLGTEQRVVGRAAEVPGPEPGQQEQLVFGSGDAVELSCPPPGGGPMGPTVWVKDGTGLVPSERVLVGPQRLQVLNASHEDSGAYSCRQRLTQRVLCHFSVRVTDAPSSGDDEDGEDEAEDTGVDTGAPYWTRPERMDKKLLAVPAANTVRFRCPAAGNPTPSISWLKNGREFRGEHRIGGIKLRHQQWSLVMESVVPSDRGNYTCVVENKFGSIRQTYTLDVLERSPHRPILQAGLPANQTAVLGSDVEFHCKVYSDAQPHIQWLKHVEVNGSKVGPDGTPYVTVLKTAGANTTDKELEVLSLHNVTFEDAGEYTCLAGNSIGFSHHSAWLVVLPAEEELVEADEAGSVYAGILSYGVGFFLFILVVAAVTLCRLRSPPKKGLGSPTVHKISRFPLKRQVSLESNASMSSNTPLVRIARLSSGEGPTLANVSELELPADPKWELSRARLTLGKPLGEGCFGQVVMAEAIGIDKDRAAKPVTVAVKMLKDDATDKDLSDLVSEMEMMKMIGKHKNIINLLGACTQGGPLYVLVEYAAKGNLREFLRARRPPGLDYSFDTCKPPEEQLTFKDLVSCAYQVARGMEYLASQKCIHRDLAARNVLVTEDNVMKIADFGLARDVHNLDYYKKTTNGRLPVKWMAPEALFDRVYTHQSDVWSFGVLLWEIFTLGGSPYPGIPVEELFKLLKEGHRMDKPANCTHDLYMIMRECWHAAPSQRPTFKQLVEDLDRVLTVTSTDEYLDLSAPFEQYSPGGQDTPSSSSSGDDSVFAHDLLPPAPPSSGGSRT
readout-label: phosphorylation enrichment
# respond with the number and nothing more

Some solved entries appear below for comparison.
monomer-sequence	system-name	phosphorylation enrichment
DLNATYRTIQG [U2SURP_Y634]	FGFR3 (UniProt P22607)	0.6
HTVVSYAEVRA [CLOCK_Y378]	FGFR3 (UniProt P22607)	0.599
LARDMYDKEFF [MET_Y1230_YF]	FGFR3 (UniProt P22607)	0.596

Turning to the following sequence.
Per the records, this sequence ( EEVGIYRMSGV [BCR_Y1089_V1091M] ) has phosphorylation enrichment equal to 0.612

* * *

Quick reference for phosphorylation enrichment among some sequences
target: EPHB2 (UniProt P29323); experiment: phosphorylation enrichment, bacterial display (enrichment ratio); higher = better substrate or ligand; peptides without Tyr show the background
# respond with the number and nothing more

Some solved entries appear below for comparison.
monomer-sequence	phosphorylation enrichment
NAPNSYGRRLI [CDKN2A_Y44_P48L]	0.454
ERTIEYLEEVA [HADHA_Y239]	0.704
DVLVEYQGEGR [GNS_Y416]	0.533
AELVRYYMEHH [PTPN11_Y80_Q79R]	0.857

Turning to the following sequence.
Per the records, this sequence ( FPPISYLNAIS [MVD_Y276] ) has phosphorylation enrichment equal to 0.472

Source listed as the supplement of paper PMC10065799.
